# EXPERIMENTAL_TARGET: PI3-Kα (Mus musculus (Mouse), UniProt P42337)
# Sequence (P42337 whole entry, the tested form may be a part): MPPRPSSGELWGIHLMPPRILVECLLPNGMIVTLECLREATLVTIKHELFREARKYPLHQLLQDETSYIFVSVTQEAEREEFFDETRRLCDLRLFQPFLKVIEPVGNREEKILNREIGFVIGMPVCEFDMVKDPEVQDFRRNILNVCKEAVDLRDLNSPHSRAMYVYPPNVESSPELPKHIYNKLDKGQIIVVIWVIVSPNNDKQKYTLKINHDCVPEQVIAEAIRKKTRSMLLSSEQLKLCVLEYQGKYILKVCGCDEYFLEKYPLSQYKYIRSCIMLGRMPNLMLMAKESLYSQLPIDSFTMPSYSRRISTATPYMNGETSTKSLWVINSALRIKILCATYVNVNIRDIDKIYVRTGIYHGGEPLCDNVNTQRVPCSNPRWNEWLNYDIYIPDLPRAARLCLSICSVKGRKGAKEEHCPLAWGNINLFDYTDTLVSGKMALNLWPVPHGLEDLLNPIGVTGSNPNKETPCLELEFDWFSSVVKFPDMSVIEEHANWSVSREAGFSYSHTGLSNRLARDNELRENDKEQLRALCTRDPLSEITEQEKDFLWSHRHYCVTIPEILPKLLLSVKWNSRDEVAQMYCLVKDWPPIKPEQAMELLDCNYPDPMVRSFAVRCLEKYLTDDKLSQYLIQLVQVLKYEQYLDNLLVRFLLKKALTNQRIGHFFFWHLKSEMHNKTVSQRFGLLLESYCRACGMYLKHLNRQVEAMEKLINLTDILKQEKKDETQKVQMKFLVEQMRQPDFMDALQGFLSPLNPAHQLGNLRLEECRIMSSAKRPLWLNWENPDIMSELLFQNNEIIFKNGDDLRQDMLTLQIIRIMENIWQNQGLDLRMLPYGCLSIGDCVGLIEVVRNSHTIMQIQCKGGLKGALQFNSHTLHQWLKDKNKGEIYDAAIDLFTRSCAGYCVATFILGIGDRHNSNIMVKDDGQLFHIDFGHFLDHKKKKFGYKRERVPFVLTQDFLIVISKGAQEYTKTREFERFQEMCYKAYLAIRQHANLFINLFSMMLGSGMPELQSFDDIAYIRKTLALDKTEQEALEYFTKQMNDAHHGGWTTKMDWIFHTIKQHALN
# Sequence (P26450 whole entry partner, the tested form may be a part): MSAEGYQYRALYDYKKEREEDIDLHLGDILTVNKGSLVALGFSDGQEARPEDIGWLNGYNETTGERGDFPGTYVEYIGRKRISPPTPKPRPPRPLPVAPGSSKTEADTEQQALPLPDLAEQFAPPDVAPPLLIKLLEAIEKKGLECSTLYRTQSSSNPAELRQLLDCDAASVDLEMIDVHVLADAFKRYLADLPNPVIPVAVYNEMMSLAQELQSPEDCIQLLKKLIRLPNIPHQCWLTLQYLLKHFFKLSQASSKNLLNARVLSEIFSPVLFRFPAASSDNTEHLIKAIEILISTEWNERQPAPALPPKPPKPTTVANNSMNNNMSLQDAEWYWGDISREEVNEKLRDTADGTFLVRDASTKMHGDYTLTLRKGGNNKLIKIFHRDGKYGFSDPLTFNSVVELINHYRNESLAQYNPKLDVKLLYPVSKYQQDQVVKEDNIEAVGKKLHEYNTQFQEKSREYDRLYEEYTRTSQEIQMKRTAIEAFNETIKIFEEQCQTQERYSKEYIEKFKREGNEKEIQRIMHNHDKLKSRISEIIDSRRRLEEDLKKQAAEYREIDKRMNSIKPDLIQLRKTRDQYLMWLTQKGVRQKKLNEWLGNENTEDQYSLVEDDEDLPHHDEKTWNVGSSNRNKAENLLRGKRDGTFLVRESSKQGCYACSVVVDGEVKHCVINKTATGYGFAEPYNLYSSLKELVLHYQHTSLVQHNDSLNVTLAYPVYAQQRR
# ASSAY_NAME: PI3-Kα biochemical assay (in vitro kinase assay, fluorescence polarization);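 also: Insect-cell-expressed mouse p110/p85 complex converting PI(4,5)P2, product PI(3,4,5)P3 detected by displacing TAMRA-tagged PI(3,4,5)P3 from Grip1 PH domain, lower polarization means more product, room temperature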
# COND: Ki calculated from IC50, [ATP]=30 uM, Km=25 uM
READOUT_LABEL: PI3Ka Ki (nM)

Cn1c(=O)n(C2CCOCC2)c2c3nc(-c4ccn[nH]4)ccc3ncc21 [Compound 202] :: 28.3
CN(C)c1ccc(-c2ccc3ncc4c(c3n2)n(C2CCNCC2)c(=O)n4C)cn1 [Compound 191] :: 0.5
C[C@H](CO)n1c(=O)n(C)c2cnc3ccc(-c4cnn(C)c4)nc3c21 [Compound 232] :: 143
COc1ncc(-c2ccc3ncc4[nH]c(=O)n(-c5ccc(C(C)(C)C#N)cc5)c4c3n2)cn1 [Compound 111] :: 11.4
Cn1cc(-c2ccc3ncc4c(c3n2)n(-c2ccc(C(C)(C)C#N)cc2)c(=O)n4C)cn1 [Compound 114] :: 72.3
O=c1[nH]c2cnc3ccc(-c4cnc5ccccc5c4)nc3c2n1C1CCNCC1 [Compound 117] :: 2.43
COCCn1c(=O)n(C)c2cnc3ccc(-c4ccc(OC)nc4)nc3c21 [Compound 270] :: 13.5
CC(=O)N1CCC(n2c(=O)n(C)c3cnc4ccc(-c5cnn(C)c5)nc4c32)CC1 [Compound 213] :: 4.09
COc1ncc(-c2ccc3ncc4c(c3n2)n(-c2ccc(C(C)(C)C#N)cc2)c(=O)n4C)cc1F [Compound 110] :: 2.35
